Assay: Example 5: single-dose study in iron-overloaded human subjects (PK)
Format: in vivo
Conditions: human, plasma; single oral dose 6 mg/kg (360 mg), subject 1; read-out: tmax
value.kind: Tmax
Record the result as a number with its unit.

IN: Given `COCCOCCOCCOc1cccc(C2=N[C@@](C)(C(=O)O)CS2)c1O` , state its recorded Tmax.
OUT: 1 h

---

Test: Example 4: seven-day dosing in iron-overloaded human subjects (PK, tolerability)
Assay type: in vivo
Conditions: human, plasma; 8 mg/kg daily 7 days oral
value.kind: Tmax (h)
Give just the numeric value; h need not be written.

IN: Look up Tmax for this compound: COCCOCCOCCOc1cccc(C2=N[C@@](C)(C(=O)O)CS2)c1O [Compound 1]
OUT: 1.18

---

Test: Example 7: high single doses in healthy human subjects (PK)
Type: in vivo
Settings: both sexes, human, plasma and urine; single oral dose 50 mg/kg, fasted
value.kind: CL renal (mL/min)
Report the figure in mL/min without appending any unit label.

IN: Using the record for COCCOCCOCCOc1cccc(C2=N[C@@](C)(C(=O)O)CS2)c1O [Compound 1] , report its CL renal.
OUT: 103

---

Test: Example 7: high single doses in healthy human subjects (PK)
Format: in vivo
Conditions: both sexes, human, plasma and urine; single oral dose 30 mg/kg, fasted
value.kind: CL renal
In your response, put the unit directly after the numeric value.

IN: # lookup: CL renal of `COCCOCCOCCOc1cccc(C2=N[C@@](C)(C(=O)O)CS2)c1O`
OUT: 139 mL/min

---

Assay: Example 6: multiple-dose study in iron-overloaded human subjects (PK)
Type: in vivo
Settings: both sexes, human, plasma; 8 mg/kg/day, 7 days oral; median; read-out: tmax
value.kind: Tmax (h)
Field: numeric (h). Do not append units.

IN: Param item = `COCCOCCOCCOc1cccc(C2=N[C@@](C)(C(=O)O)CS2)c1O` ; retrieve measured Tmax.
OUT: 1.18

---

Assay: Example 8: single-dose study in healthy human subjects 3-16 mg/kg (PK)
Type: in vivo
Conditions: male, human, plasma, po, 16 mg/kg, single oral dose 16 mg/kg; mean; read-out: t1/2 (converted)
Method: Example 8 was a double-blind, placebo-controlled single dose-escalating study in healthy subjects. […] The objectives of this study were to assess the safety, tolerability, and pharmacokinetics of ascending single doses of Compound 1 compared to placebo. Additionally, dose proportionality and pharmacodynamics of Compound 1 were assessed. Four doses of Compound 1 (3, 6, 10, and 16 mg/kg), in capsule form, were evaluated in this study. […]
value.kind: half-life (h)
// return numeric value only (unit: h, not printed)

IN: # half-life lookup, item `COCCOCCOCCOc1cccc(C2=N[C@@](C)(C(=O)O)CS2)c1O`
OUT: 16.1

---

Assay: Example 7: high single doses in healthy human subjects (PK)
Type: in vivo
Settings: both sexes, human, plasma and urine; single oral dose 40 mg/kg, fasted
value.kind: CL renal (mL/min)
Give just the numeric value; mL/min need not be written.

IN: Which CL renal value is on record for `COCCOCCOCCOc1cccc(C2=N[C@@](C)(C(=O)O)CS2)c1O` ?
OUT: 152

---

Assay: Example 7: high single doses in healthy human subjects (PK)
Format: in vivo
Conditions: both sexes, human, plasma; single oral dose 30 mg/kg, fasted
value.kind: Tmax (h)
I only need the number, in h, no unit after it.

IN: So what's the measured Tmax for this one? `COCCOCCOCCOc1cccc(C2=N[C@@](C)(C(=O)O)CS2)c1O`
OUT: 1

---

Test: Example 7: high single doses in healthy human subjects (PK)
Format: in vivo
Details: both sexes, human, plasma; single oral dose 30 mg/kg, fasted
value.kind: AUC(0-inf)

IN: Quick one: AUC(0-inf) of `COCCOCCOCCOc1cccc(C2=N[C@@](C)(C(=O)O)CS2)c1O` ?
OUT: 161 µg·h/mL

---

Assay: Example 5: single-dose study in iron-overloaded human subjects (PK)
Format: in vivo
Settings: human, plasma; single oral dose 6 mg/kg, subject 1
value.kind: Cmax (µg/mL)
Give a bare numeral; the unit µg/mL is implied.

IN: I would be grateful if you could share the reported Cmax for `COCCOCCOCCOc1cccc(C2=N[C@@](C)(C(=O)O)CS2)c1O` .
OUT: 14.9

---

Experiment: Example 5: single-dose study in iron-overloaded human subjects (PK)
Format: in vivo
Conditions: human, plasma; single oral dose 6 mg/kg, subject 1
value.kind: AUC(0-inf) (ng·h/mL)
Value expressed in ng·h/mL; do not type the unit.

IN: Requested read-out: AUC(0-inf). Entry: COCCOCCOCCOc1cccc(C2=N[C@@](C)(C(=O)O)CS2)c1O [Compound 1]
OUT: 46300

---

Experiment: Example 5: single-dose study in iron-overloaded human subjects (PK)
Assay type: in vivo
Settings: human, plasma; single oral dose 16 mg/kg, subject 3
value.kind: Cmax
Give the number first and the unit second.

IN: # query: Cmax of entry `COCCOCCOCCOc1cccc(C2=N[C@@](C)(C(=O)O)CS2)c1O`
OUT: 38500 ng/mL

---

Assay: Example 6: multiple-dose study in iron-overloaded human subjects (PK)
Type: in vivo
Conditions: both sexes, human, plasma; 32 mg/kg/day, 7 days oral; N = 2; read-out: Vz/F
value.kind: Vd/F (L)
Numeric answer only, unit L assumed.

IN: Please look up its Vd/F: `COCCOCCOCCOc1cccc(C2=N[C@@](C)(C(=O)O)CS2)c1O`
OUT: 214

---

Test: Example 7: high single doses in healthy human subjects (PK)
Type: in vivo
Conditions: both sexes, human, plasma; single oral dose 40 mg/kg, fasted
value.kind: Cmax (µg/mL)
A number alone suffices; assume µg/mL.

IN: Reported Cmax, compound COCCOCCOCCOc1cccc(C2=N[C@@](C)(C(=O)O)CS2)c1O [Compound 1] : ____
OUT: 87.9

---

Assay: Example 5: single-dose study in iron-overloaded human subjects (PK)
Assay type: in vivo
Details: human, plasma; single oral dose 10 mg/kg, subject 2
value.kind: Cmax (ng/mL)
Write it as a number; the unit ng/mL goes unstated.

IN: Look at this compound and give its reported Cmax. COCCOCCOCCOc1cccc(C2=N[C@@](C)(C(=O)O)CS2)c1O [Compound 1]
OUT: 35400

---

Assay: Example 7: high single doses in healthy human subjects (PK)
Format: in vivo
Conditions: both sexes, human, plasma and urine; single oral dose 60 mg/kg, fasted
value.kind: CL renal
In your response, put the unit directly after the numeric value.

IN: Query: CL renal; subject: `COCCOCCOCCOc1cccc(C2=N[C@@](C)(C(=O)O)CS2)c1O`
OUT: 146 mL/min

---

Test: Example 9: single-dose study in healthy human subjects 30-75 mg/kg and 20 mg/kg x 2 (PK)
Assay type: in vivo
Settings: human, urine and plasma; single oral dose 75 mg/kg; read-out: CLr
value.kind: CL renal (mL/min)
Give your result in mL/min as a bare value.

IN: Can you share its CL renal? I mean this compound: `COCCOCCOCCOc1cccc(C2=N[C@@](C)(C(=O)O)CS2)c1O`
OUT: 165

---

Assay: Example 6: multiple-dose study in iron-overloaded human subjects (PK)
Type: in vivo
Details: both sexes, human, plasma; 3 mg/kg/day, 7 days oral; N = 4; read-out: Vz/F
value.kind: Vd/F
In your response, the unit should come after the numeric value.

IN: Fill in the blank: the reported Vd/F of COCCOCCOCCOc1cccc(C2=N[C@@](C)(C(=O)O)CS2)c1O [Compound 1] is ____.
OUT: 185 L

---

Assay: Example 5: single-dose study in iron-overloaded human subjects (PK)
Assay type: in vivo
Settings: human, plasma; single oral dose 16 mg/kg, subject 3
value.kind: AUC(0-t) (µg·h/mL)
Kindly answer with a numeric value in µg·h/mL, unit omitted.

IN: Need AUC(0-t) of `COCCOCCOCCOc1cccc(C2=N[C@@](C)(C(=O)O)CS2)c1O` , thanks.
OUT: 122

---

Assay: Example 4: seven-day dosing in iron-overloaded human subjects (PK, tolerability)
Format: in vivo
Conditions: human, plasma and urine; 16 mg/kg daily 7 days oral
value.kind: CL renal (mL/min)
Write the value in mL/min as a bare number.

IN: Consider the compound `COCCOCCOCCOc1cccc(C2=N[C@@](C)(C(=O)O)CS2)c1O` and give its measured CL renal.
OUT: 83.2

---

Experiment: Example 7: high single doses in healthy human subjects (PK)
Assay type: in vivo
Conditions: both sexes, human, plasma; single oral dose 50 mg/kg, fasted
value.kind: Cmax (µg/mL)
The reply should be a number in µg/mL, with the unit left off.

IN: Quick check: Cmax of `COCCOCCOCCOc1cccc(C2=N[C@@](C)(C(=O)O)CS2)c1O` ?
OUT: 91.7

---

Test: Example 9: single-dose study in healthy human subjects 30-75 mg/kg and 20 mg/kg x 2 (PK)
Assay type: in vivo
Conditions: human, plasma; single oral dose 50 mg/kg
value.kind: Cmax (µg/mL)
Number only, in µg/mL; omit the unit.

IN: I'd like to know its Cmax. The compound in question is `COCCOCCOCCOc1cccc(C2=N[C@@](C)(C(=O)O)CS2)c1O`
OUT: 91.7
